assay: particle size and polydispersity index of drug micelles over time (ZetaSizer); assay type: physicochemical; settings: docetaxel:compound 1:3, docetaxel 0.5 mg/mL; time 4 h
// reported Particle size for each item listed
attribute_measured: Particle size (nm)

1. COc1cc(C)c(/C=C/C(C)=C/C=C/C(C)=C/C(=O)N2CCN(C(=O)c3ccc(S(=O)(=O)[O-])cc3)CC2)c(C)c1C.[K+] 113.0
2. COc1cc(C)c(/C=C/C(C)=C/C=C/C(C)=C/C(=O)N(C)[C@H]2CC[C@H](CS(=O)(=O)[O-])CC2)c(C)c1C.[Na+] 96.90
3. COc1cc(C)c(/C=C/C(C)=C/C=C/C(C)=C/C(=O)N(C)CCS(=O)(=O)[O-])c(C)c1C.[Na+] 10.18

----------
assay: particle size and polydispersity index of drug micelles over time (ZetaSizer); assay type: physicochemical; details: docetaxel:compound 1:3, docetaxel 0.5 mg/mL; time 2 h
Exam item: assign TRUE to entries whose Particle size is below 80 nm and FALSE to entries at or above 80 nm. Note that a value of exactly 80 nm receives FALSE.

1) COc1cc(C)c(/C=C/C(C)=C/C=C/C(C)=C/C(=O)N(CCS(=O)(=O)[O-])CC(N)=O)c(C)c1C.[Na+] TRUE
2) COc1cc(C)c(/C=C/C(C)=C/C=C/C(C)=C/C(=O)N2CCN(c3ccc(S(=O)(=O)[O-])cc3)CC2)c(C)c1C.[Na+] TRUE
3) COc1cc(C)c(/C=C/C(C)=C/C=C/C(C)=C/C(=O)N2CCC(CCS(=O)(=O)[O-])CC2)c(C)c1C.[Na+] TRUE
4) COc1cc(C)c(/C=C/C(C)=C/C=C/C(C)=C/C(=O)N(C)[C@H]2CC[C@H](CS(=O)(=O)[O-])CC2)c(C)c1C.[Na+] FALSE
5) COc1cc(C)c(/C=C/C(C)=C/C=C/C(C)=C/C(=O)N(C)CCS(=O)(=O)[O-])c(C)c1C.[Na+] TRUE
6) COc1cc(C)c(/C=C/C(C)=C/C=C/C(C)=C/C(=O)N2CCN(C(=O)c3ccc(S(=O)(=O)[O-])cc3)CC2)c(C)c1C.[K+] FALSE

----------
In this section we review reported Polydispersity index values for a set of compounds.
assay: particle size and polydispersity index of drug micelles over time (ZetaSizer); type: physicochemical; settings: docetaxel:compound 1:3, docetaxel 0.5 mg/mL; time 0 h

compound	Polydispersity index
COc1cc(C)c(/C=C/C(C)=C/C=C/C(C)=C/C(=O)N(C)[C@H]2CC[C@H](CS(=O)(=O)[O-])CC2)c(C)c1C.[Na+] [Compound 7]	0.23
COc1cc(C)c(/C=C/C(C)=C/C=C/C(C)=C/C(=O)N2CCC(CCS(=O)(=O)[O-])CC2)c(C)c1C.[Na+] [Compound 8]	0.20
COc1cc(C)c(/C=C/C(C)=C/C=C/C(C)=C/C(=O)N2CCN(c3ccc(S(=O)(=O)[O-])cc3)CC2)c(C)c1C.[Na+] [Compound 6]	0.22
